Biological target: Acetylcholinesterase (Electrophorus electricus)
Sequence (O42275 whole entry): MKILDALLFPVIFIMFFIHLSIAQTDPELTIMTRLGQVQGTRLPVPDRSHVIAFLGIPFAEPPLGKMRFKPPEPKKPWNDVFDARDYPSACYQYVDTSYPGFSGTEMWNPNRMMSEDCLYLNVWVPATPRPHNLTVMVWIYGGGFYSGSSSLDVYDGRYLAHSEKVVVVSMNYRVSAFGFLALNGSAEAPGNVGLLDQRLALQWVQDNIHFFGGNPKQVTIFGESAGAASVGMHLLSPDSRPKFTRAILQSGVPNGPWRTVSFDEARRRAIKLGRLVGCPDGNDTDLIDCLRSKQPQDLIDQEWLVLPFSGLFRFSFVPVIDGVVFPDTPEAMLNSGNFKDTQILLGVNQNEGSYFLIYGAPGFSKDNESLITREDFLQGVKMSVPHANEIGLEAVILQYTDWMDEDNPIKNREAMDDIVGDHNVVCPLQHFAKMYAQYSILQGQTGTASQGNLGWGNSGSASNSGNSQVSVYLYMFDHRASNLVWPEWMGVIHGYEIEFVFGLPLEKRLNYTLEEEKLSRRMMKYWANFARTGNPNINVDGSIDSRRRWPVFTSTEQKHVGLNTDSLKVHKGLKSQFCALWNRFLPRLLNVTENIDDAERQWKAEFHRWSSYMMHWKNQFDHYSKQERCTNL
Assay: Mixed inhibition of electric eel AChE using acetylthiocholine iodide as substrate measured from 0.5 to 1.5 mins by Dixon plot analysis
pKi: −log10 of the molar value.
Entries and their pKi values follow.
assay readout: pKi

smiles_structure=O=C(Nc1cc(Cl)nc(Cl)c1)OCCCCCNCc1c[nH]c2ccccc12 value_observed=6.80
smiles_structure=O=C(Nc1cc(Cl)nc(Cl)c1)OCCCCCNCc1ccccc1 value_observed=7.41
smiles_structure=COc1ccccc1CNCCCCCOC(=O)Nc1cc(Cl)nc(Cl)c1 value_observed=6.54
smiles_structure=O=C(NCCCCCCNCc1ccccc1)c1cc(Cl)nc(Cl)c1 value_observed=7.28
smiles_structure=COc1ccccc1CNCCCCCCNC(=O)c1cc(Cl)nc(Cl)c1 value_observed=6.45
smiles_structure=O=C(NCCCCCCNCc1c[nH]c2ccccc12)c1cc(Cl)nc(Cl)c1 value_observed=6.69
smiles_structure=O=C(Nc1cc(Cl)nc(Cl)c1)OCCCCCCNCc1ccccc1 value_observed=6.59
smiles_structure=O=C(Nc1ccncc1Br)OCCCCCNCc1ccccc1 value_observed=6.39

====

Form field: inhibition (one value per entry).
Molecular target: UniProtKB P81908
Sequence (P81908 whole entry): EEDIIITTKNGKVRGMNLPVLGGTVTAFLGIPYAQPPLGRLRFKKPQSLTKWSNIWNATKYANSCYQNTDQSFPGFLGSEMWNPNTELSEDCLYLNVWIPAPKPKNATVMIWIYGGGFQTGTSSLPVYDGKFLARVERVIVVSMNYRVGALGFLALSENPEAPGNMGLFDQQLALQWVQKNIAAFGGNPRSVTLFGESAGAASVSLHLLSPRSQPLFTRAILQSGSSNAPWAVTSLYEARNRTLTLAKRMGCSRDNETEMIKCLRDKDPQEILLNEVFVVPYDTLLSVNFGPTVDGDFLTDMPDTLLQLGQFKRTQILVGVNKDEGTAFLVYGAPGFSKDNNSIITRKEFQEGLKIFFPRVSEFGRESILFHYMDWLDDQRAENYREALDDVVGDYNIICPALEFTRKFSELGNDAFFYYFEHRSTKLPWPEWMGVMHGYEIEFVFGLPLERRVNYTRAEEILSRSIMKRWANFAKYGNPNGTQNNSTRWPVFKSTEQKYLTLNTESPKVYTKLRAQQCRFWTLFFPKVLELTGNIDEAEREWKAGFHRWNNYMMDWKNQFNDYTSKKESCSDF
Assay: Inhibition of equine BChE at 0.3 uM using butyrylthiocholine iodide as substrate measured from 0.5 to 1.5 mins by spectrophotometry based Ellman's method relative to control
assay readout: inhibition (%)

smiles_structure=O=C(NCCCCCCNCc1c[nH]c2ccccc12)c1cc(Cl)nc(Cl)c1 system="UniProtKB P81908" assay_readout=inhibition prefix_operator== value_observed=13
smiles_structure=O=C(Nc1cc(Cl)nc(Cl)c1)OCCCCCNCc1ccccc1 system="UniProtKB P81908" assay_readout=inhibition prefix_operator== value_observed=17
smiles_structure=COc1ccccc1CNCCCCCOC(=O)Nc1cc(Cl)nc(Cl)c1 system="UniProtKB P81908" assay_readout=inhibition prefix_operator=< value_observed=5
smiles_structure=O=C(Nc1cc(Cl)nc(Cl)c1)OCCCCCNCc1c[nH]c2ccccc12 system="UniProtKB P81908" assay_readout=inhibition prefix_operator== value_observed=8
smiles_structure=O=C(NCCCCCCNCc1ccccc1)c1cc(Cl)nc(Cl)c1 system="UniProtKB P81908" assay_readout=inhibition prefix_operator== value_observed=17
smiles_structure=COc1ccccc1CNCCCCCCNC(=O)c1cc(Cl)nc(Cl)c1 system="UniProtKB P81908" assay_readout=inhibition prefix_operator== value_observed=6
smiles_structure=O=C(Nc1ccncc1Br)OCCCCCNCc1ccccc1 system="UniProtKB P81908" assay_readout=inhibition prefix_operator=< value_observed=5
smiles_structure=O=C(Nc1cc(Cl)nc(Cl)c1)OCCCCCCNCc1ccccc1 system="UniProtKB P81908" assay_readout=inhibition prefix_operator== value_observed=12

====

Target: Acetylcholinesterase (Homo sapiens, UniProt P22303)
Sequence (P22303 whole entry): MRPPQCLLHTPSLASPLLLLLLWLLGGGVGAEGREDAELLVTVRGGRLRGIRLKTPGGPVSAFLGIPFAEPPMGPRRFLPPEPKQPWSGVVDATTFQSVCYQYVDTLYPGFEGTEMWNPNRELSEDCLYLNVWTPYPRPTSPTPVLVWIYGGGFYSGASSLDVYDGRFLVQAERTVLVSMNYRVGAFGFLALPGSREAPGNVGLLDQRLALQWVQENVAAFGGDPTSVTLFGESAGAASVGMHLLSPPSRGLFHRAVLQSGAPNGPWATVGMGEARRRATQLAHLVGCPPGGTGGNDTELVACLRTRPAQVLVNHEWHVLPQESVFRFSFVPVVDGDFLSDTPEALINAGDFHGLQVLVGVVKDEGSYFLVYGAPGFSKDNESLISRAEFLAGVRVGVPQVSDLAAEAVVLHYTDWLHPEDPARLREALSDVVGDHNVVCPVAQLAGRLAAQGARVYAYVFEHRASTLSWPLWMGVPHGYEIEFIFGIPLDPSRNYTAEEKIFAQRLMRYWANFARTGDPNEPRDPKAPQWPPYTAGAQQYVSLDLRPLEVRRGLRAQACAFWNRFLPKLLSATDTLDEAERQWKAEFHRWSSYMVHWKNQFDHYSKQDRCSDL
Assay: Inhibition of human serum AChE using acetylthiocholine iodide as substrate preincubated for 20 mins followed by substrate addition measured for 3 mins by Ellman's method
assay readout: IC50 (nM)

smiles_structure=O=C(Nc1cc(Cl)nc(Cl)c1)OCCCCCNCc1ccccc1 assay_readout=IC50 value_observed=153
smiles_structure=O=C(Nc1cc(Cl)nc(Cl)c1)OCCCCCCNCc1ccccc1 assay_readout=IC50 value_observed=759
smiles_structure=COc1ccccc1CNCCCCCCNC(=O)c1cc(Cl)nc(Cl)c1 assay_readout=IC50 value_observed=8300

====

// values below are reported IC50
Molecular target: UniProt:P06276
Assay: Inhibition of human serum BChE using butyrylthiocholine iodide as substrate preincubated for 20 mins followed by substrate addition measured for 3 mins by Ellman's method
assay readout: IC50 (µM)

smiles_structure=O=C(NCCCCCCNCc1c[nH]c2ccccc12)c1cc(Cl)nc(Cl)c1 value_observed=4.7
smiles_structure=O=C(NCCCCCCNCc1ccc2ccccc2c1)c1cc(Cl)nc(Cl)c1 value_observed=9.96
smiles_structure=COc1ccccc1CNCCCCCOC(=O)Nc1cc(Cl)nc(Cl)c1 value_observed=4.02
smiles_structure=COc1ccccc1CNCCCCCCNC(=O)c1cc(Cl)nc(Cl)c1 value_observed=45.5

====

Molecular target: Acetylcholinesterase (Electrophorus electricus) (UniProt O42275)
Test: Inhibition of electric eel AChE at 3.0 uM using acetylthiocholine iodide as substrate measured from 0.5 to 1.5 mins by spectrophotometry-based Ellman's method relative to control
Listed here are compounds together with their documented inhibition.
assay readout: inhibition (%)

smiles_structure=O=C(NCCCCCCNCc1ccc2ccccc2c1)c1cc(Cl)nc(Cl)c1 system="Acetylcholinesterase (Electrophorus electricus) (UniProt O42275)" value_observed=15
smiles_structure=O=C(Nc1cc(Cl)nc(Cl)c1)OCCCCCCNCc1ccccc1 system="Acetylcholinesterase (Electrophorus electricus) (UniProt O42275)" value_observed=91
smiles_structure=O=C(Nc1cc(Cl)nc(Cl)c1)OCCCCCNCc1ccccc1 system="Acetylcholinesterase (Electrophorus electricus) (UniProt O42275)" value_observed=99
smiles_structure=O=C(Nc1ccncc1Br)OCCCCCNCc1ccccc1 system="Acetylcholinesterase (Electrophorus electricus) (UniProt O42275)" value_observed=90
smiles_structure=COc1ccccc1CNCCCCCCNC(=O)c1cc(Cl)nc(Cl)c1 system="Acetylcholinesterase (Electrophorus electricus) (UniProt O42275)" value_observed=90
smiles_structure=O=C(Nc1cc(Cl)nc(Cl)c1)OCCCCCNCc1c[nH]c2ccccc12 system="Acetylcholinesterase (Electrophorus electricus) (UniProt O42275)" value_observed=97
smiles_structure=O=C(NCCCCCCNCc1ccc(Oc2ccccc2)cc1)c1cc(Cl)nc(Cl)c1 system="Acetylcholinesterase (Electrophorus electricus) (UniProt O42275)" value_observed=16
smiles_structure=O=C(NCCCCCCNCc1ccccc1)c1cc(Cl)nc(Cl)c1 system="Acetylcholinesterase (Electrophorus electricus) (UniProt O42275)" value_observed=95
smiles_structure=COc1ccccc1CNCCCCCOC(=O)Nc1cc(Cl)nc(Cl)c1 system="Acetylcholinesterase (Electrophorus electricus) (UniProt O42275)" value_observed=89
smiles_structure=O=C(NCCCCCCNCc1c[nH]c2ccccc12)c1cc(Cl)nc(Cl)c1 system="Acetylcholinesterase (Electrophorus electricus) (UniProt O42275)" value_observed=92
smiles_structure=O=C(Nc1cc(Cl)nc(Cl)c1)OCCCCCNCc1ccc(Oc2ccccc2)cc1 system="Acetylcholinesterase (Electrophorus electricus) (UniProt O42275)" value_observed=24

====

Target: UniProt P81908
Test: Inhibition of equine BChE at 3.0 uM using butyrylthiocholine iodide as substrate measured from 0.5 to 1.5 mins by spectrophotometry based Ellman's method relative to control
The entries below are paired with their reported inhibition.
assay readout: inhibition (%)

smiles_structure=O=C(Nc1cc(Cl)nc(Cl)c1)OCCCCCNCc1ccc(Oc2ccccc2)cc1 assay_readout=inhibition value_observed=60
smiles_structure=O=C(Nc1ccncc1Br)OCCCCCNCc1ccccc1 assay_readout=inhibition value_observed=57
smiles_structure=O=C(NCCCCCCNCc1ccccc1)c1cc(Cl)nc(Cl)c1 assay_readout=inhibition value_observed=73
smiles_structure=O=C(NCCCCCCNCc1c[nH]c2ccccc12)c1cc(Cl)nc(Cl)c1 assay_readout=inhibition value_observed=64
smiles_structure=O=C(Nc1cc(Cl)nc(Cl)c1)OCCCCCNCc1c[nH]c2ccccc12 assay_readout=inhibition value_observed=57
smiles_structure=COc1ccccc1CNCCCCCOC(=O)Nc1cc(Cl)nc(Cl)c1 assay_readout=inhibition value_observed=49
smiles_structure=COc1ccccc1CNCCCCCCNC(=O)c1cc(Cl)nc(Cl)c1 assay_readout=inhibition value_observed=54
smiles_structure=O=C(NCCCCCCNCc1ccc2ccccc2c1)c1cc(Cl)nc(Cl)c1 assay_readout=inhibition value_observed=46
smiles_structure=O=C(NCCCCCCNCc1ccc(Oc2ccccc2)cc1)c1cc(Cl)nc(Cl)c1 assay_readout=inhibition value_observed=18

====

Below: a set of entries, each annotated with reported pIC50.
Target: Cholinesterase (Homo sapiens, UniProt P06276)
Sequence (P06276 whole entry): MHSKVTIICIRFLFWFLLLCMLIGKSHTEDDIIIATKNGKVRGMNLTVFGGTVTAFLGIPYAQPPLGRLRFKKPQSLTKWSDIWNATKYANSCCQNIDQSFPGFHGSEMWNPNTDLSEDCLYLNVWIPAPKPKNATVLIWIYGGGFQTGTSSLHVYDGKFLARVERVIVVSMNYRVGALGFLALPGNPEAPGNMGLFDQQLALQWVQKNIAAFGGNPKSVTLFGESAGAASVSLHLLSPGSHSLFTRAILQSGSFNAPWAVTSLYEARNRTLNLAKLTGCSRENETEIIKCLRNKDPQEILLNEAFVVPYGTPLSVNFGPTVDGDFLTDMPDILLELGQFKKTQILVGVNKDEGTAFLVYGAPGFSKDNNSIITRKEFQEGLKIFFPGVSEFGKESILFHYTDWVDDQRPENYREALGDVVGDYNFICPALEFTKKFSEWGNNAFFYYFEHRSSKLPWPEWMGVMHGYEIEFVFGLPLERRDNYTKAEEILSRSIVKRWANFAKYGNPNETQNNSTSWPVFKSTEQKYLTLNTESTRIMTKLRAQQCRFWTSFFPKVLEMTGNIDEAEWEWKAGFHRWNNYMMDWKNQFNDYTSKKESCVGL
Test: Inhibition of human serum BChE using butyrylthiocholine iodide as substrate preincubated for 20 mins followed by substrate addition measured for 3 mins by Ellman's method
pIC50: −log10 of the molar value.
assay readout: pIC50

smiles_structure=O=C(Nc1cc(Cl)nc(Cl)c1)OCCCCCNCc1c[nH]c2ccccc12 value_observed=6.08
smiles_structure=O=C(NCCCCCCNCc1ccccc1)c1cc(Cl)nc(Cl)c1 value_observed=4.59
smiles_structure=O=C(Nc1cc(Cl)nc(Cl)c1)OCCCCCCNCc1ccccc1 value_observed=5.40
smiles_structure=O=C(Nc1cc(Cl)nc(Cl)c1)OCCCCCNCc1ccc(Oc2ccccc2)cc1 value_observed=5.08
smiles_structure=O=C(Nc1cc(Cl)nc(Cl)c1)OCCCCCNCc1ccccc1 value_observed=5.34
smiles_structure=O=C(Nc1ccncc1Br)OCCCCCNCc1ccccc1 value_observed=5.28

====

Molecular target: Acetylcholinesterase (Homo sapiens)
Test: Inhibition of human serum AChE using acetylthiocholine iodide as substrate preincubated for 20 mins followed by substrate addition measured for 3 mins by Ellman's method
IC50: recorded values
assay readout: IC50 (µM)

smiles_structure=O=C(NCCCCCCNCc1ccc2ccccc2c1)c1cc(Cl)nc(Cl)c1 value_observed=99.7
smiles_structure=COc1ccccc1CNCCCCCOC(=O)Nc1cc(Cl)nc(Cl)c1 value_observed=6.16
smiles_structure=O=C(NCCCCCCNCc1c[nH]c2ccccc12)c1cc(Cl)nc(Cl)c1 value_observed=8.85
smiles_structure=O=C(Nc1ccncc1Br)OCCCCCNCc1ccccc1 value_observed=4.04
smiles_structure=O=C(NCCCCCCNCc1ccccc1)c1cc(Cl)nc(Cl)c1 value_observed=3.17
smiles_structure=O=C(Nc1cc(Cl)nc(Cl)c1)OCCCCCNCc1c[nH]c2ccccc12 value_observed=0.648
